# Fik Kinase %Inhibition values compiled below
- ASSAY_SYSTEM: FLK-1 receptor (Mus musculus, UniProt P35918)
- Construct: expressed in transfected cells; host or cells: NIH3T3 C7#3
- Sequence (P35918 20-1345): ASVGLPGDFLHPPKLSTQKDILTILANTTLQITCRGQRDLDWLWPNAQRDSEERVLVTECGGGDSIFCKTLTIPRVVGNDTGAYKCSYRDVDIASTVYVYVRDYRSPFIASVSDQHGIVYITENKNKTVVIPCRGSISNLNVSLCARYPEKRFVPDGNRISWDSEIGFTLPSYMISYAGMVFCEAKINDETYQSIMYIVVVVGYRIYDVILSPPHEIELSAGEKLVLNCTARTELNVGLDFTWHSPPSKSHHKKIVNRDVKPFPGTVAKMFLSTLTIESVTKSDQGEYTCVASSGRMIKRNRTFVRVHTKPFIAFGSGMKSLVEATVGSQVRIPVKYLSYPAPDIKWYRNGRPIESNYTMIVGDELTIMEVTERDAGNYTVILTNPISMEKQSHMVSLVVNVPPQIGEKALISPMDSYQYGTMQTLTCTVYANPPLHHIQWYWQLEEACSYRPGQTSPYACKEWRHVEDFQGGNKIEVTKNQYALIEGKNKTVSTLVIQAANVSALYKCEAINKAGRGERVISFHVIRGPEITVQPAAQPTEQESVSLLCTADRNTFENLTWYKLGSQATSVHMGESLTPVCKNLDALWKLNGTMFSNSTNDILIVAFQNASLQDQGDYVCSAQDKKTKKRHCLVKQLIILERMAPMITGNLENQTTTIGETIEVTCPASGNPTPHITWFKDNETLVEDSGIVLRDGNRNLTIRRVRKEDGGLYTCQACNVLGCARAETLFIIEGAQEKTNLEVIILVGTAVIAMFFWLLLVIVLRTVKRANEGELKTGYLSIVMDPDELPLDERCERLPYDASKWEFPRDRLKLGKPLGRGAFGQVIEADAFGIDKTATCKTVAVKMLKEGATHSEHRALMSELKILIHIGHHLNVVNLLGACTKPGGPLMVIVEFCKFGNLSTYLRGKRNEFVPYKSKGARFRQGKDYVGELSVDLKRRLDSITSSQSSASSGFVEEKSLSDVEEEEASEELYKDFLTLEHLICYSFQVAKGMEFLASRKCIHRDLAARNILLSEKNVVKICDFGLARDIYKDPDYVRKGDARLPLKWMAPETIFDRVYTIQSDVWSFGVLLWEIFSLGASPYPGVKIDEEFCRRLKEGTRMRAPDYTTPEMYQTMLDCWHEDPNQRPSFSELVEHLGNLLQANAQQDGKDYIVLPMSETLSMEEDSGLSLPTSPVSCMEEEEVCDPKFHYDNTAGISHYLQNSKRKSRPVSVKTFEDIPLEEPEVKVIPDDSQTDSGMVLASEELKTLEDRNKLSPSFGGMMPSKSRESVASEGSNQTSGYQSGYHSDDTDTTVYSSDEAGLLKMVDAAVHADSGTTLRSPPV
- PROCEDURE_DETAILS: FLK-1 ELISA (kinase activity of the FLK-1 receptor in FLK-1/NIH3T3 cells, VEGF stimulated)
- Assay type: cell-based
Lab book: enter the figure in %, no units written.

Guide cases for Fik Kinase %Inhibition, answers given:
COMPOUND	ASSAY_SYSTEM	Fik Kinase %Inhibition (%)
CCc1ccc(C=C2C(=O)Nc3ccc(S(=O)(=O)NC)cc32)s1 [10726/D10]	FLK-1 receptor (Mus musculus, UniProt P35918)	14.7
CNS(=O)(=O)c1ccc2c(c1)C(=CC1C=CCCC1)C(=O)N2 (stereo not shown) [10729/D11]	FLK-1 receptor (Mus musculus, UniProt P35918)	-2.0
O=C1Nc2ccc(CCCl)cc2C1=Cc1cccnc1 [10729/G08]	FLK-1 receptor (Mus musculus, UniProt P35918)	-1.0
O=C1Nc2ccc(S(=O)(=O)Nc3ccc(C(F)(F)F)cc3)cc2C1=Cc1ccc([N+](=O)[O-])cc1 [10734/E06]	FLK-1 receptor (Mus musculus, UniProt P35918)	28.4
COc1ccc(Br)c(C=C2C(=O)Nc3ccc(I)cc32)c1O [10725/B03]	FLK-1 receptor (Mus musculus, UniProt P35918)	4.9
CCOc1ccc(C=C2C(=O)Nc3ccc(CCCl)cc32)cc1OC [10719/G02]	FLK-1 receptor (Mus musculus, UniProt P35918)	27.3
O=C1Nc2c(Br)cc(Br)cc2C1=Cc1ccc(-c2ccccc2Cl)o1 [10730/A07]	FLK-1 receptor (Mus musculus, UniProt P35918)	-18.9
CNS(=O)(=O)c1ccc2c(c1)C(=Cc1ccc(C(=O)O)cc1)C(=O)N2 [10722/D05]	FLK-1 receptor (Mus musculus, UniProt P35918)	21.4
CC(C)(C)c1cc(C=C2C(=O)Nc3c(Br)cc(Br)cc32)ccc1O [10721/A09]	FLK-1 receptor (Mus musculus, UniProt P35918)	10.9
Cc1c(Br)ccc2c1C(=Cc1ccc[nH]1)C(=O)N2 [10717/C09]	FLK-1 receptor (Mus musculus, UniProt P35918)	77.1

Ask: Provide only the value of recorded Fik Kinase %Inhibition for COc1cc(N(C)C)ccc1C=C1C(=O)Nc2c(Br)cc(Br)cc21 [10728/A05]
Result: -10.8

Ask: Provide only the value of recorded Fik Kinase %Inhibition for COc1cc(Br)c(O)c(C=C2C(=O)Nc3ccc(I)cc32)c1 [10718/B03]
Result: 1.7

Ask: Provide only the value of recorded Fik Kinase %Inhibition for COc1ccc(C=C2C(=O)Nc3ccc(I)cc32)cc1C(C)(C)C [10732/B05]
Result: 2.8

Ask: Provide only the value of recorded Fik Kinase %Inhibition for O=C1Nc2ccc(I)cc2C1=Cc1c(F)cccc1C(F)(F)F [10728/B09]
Result: 1.7

Ask: Provide only the value of recorded Fik Kinase %Inhibition for COc1ccc(C=C2C(=O)Nc3ccc(Br)c(C)c32)c2ccccc12 [10729/C03]
Result: 11.0

Ask: Provide only the value of recorded Fik Kinase %Inhibition for C=C(C)C1CC=C(C=C2C(=O)Nc3ccc(S(=O)(=O)NC)cc32)CC1 (stereo not shown) [10731/D04]
Result: 9.3

Ask: Provide only the value of recorded Fik Kinase %Inhibition for Cc1c(Br)ccc2c1C(=Cc1cccc(C#N)c1)C(=O)N2 [10727/C08]
Result: 4.9

Ask: Provide only the value of recorded Fik Kinase %Inhibition for COc1ccc(C=C2C(=O)Nc3ccc(CCCl)cc32)c(OC)c1 [10719/G04]
Result: 11.5

Ask: Provide only the value of recorded Fik Kinase %Inhibition for CCn1c2ccccc2c2cc(C=C3C(=O)Nc4c(Br)cc(Br)cc43)ccc21 [10731/A02]
Result: 2.7
